Just for reference, patent US7820699B2 is where these values come from.

targetOrTestSystem: human factor Xa (Homo sapiens, UniProt P00742)
Construct: purchased Enzyme Research Laboratories
Sequence (P00742 235-488 limits assumed): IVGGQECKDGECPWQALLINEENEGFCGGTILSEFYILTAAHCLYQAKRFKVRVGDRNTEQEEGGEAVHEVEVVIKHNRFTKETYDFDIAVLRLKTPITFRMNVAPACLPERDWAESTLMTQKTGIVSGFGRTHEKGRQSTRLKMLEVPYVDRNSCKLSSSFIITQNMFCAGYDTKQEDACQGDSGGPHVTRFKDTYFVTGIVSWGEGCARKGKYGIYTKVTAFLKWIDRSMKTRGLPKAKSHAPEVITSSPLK
Sequence (P00742 41-179 partner limits assumed): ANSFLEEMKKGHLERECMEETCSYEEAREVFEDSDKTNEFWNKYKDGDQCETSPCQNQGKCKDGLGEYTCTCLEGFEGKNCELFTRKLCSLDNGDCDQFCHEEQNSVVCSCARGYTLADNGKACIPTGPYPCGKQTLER
protocolSummary: chromogenic peptide substrate assay, inhibition of factor Xa
Format: biochemical
testContext: human factor Xa 3 nM, chromogenic substrate S-2222, pH 7.8, room temperature; Ki from IC50 by Cheng-Prusoff
Procedure: Factor Xa activity was measured spectrophotometrically in microtiter plates in a final volume of 150 μl using the following conditions: Inhibition of human factor Xa (Enzyme Research Laboratories) was tested at an enzyme concentration of 3 nM using the chromogenic substrate S-2222 (Chromogenix AB, Molndal, Sweden) at 200 nM. […] The velocity of the reaction was determined by the autoreader from the slope of the linear regression fit to 7 time points (1 minute). […]

molecule | Ki / µM
CC(C(=O)Nc1ccc(-n2ccccc2=O)cc1F)N1CC[C@@H](NC(=O)c2ccc(Cl)s2)C1 (some centres unmarked) | 0.017
O=C(NC[C@H]1CCN(C(=O)Nc2ccc(-n3ccccc3=O)cc2F)C1)c1ccc(Cl)s1 | 0.013
CN(C1CN(C(=O)Nc2ccc(-n3ccccc3=O)cc2F)C[C@H]1CNC(=O)c1ccc(Cl)s1)S(C)(=O)=O (some centres unmarked) | 0.012
CO[C@H]1CN(CC(=O)Nc2ccc(N3CCOCC3=O)cc2F)C[C@@H]1NC(=O)c1ccc(Cl)s1 | 0.014
O=C(NC[C@@H]1CN(C(=O)Nc2ccc(-n3ccccc3=O)cc2F)C[C@H]1C(F)(F)F)c1ccc(Cl)s1 | 0.008
